biological target: human 15-LO (Homo sapiens); assay: Human Lysate 15-LO Assay (HUM15LO); details: 15-LO catalyzed oxidation of linoleic acid, 15 minutes at 4° C.
Sequence (P16050 whole entry): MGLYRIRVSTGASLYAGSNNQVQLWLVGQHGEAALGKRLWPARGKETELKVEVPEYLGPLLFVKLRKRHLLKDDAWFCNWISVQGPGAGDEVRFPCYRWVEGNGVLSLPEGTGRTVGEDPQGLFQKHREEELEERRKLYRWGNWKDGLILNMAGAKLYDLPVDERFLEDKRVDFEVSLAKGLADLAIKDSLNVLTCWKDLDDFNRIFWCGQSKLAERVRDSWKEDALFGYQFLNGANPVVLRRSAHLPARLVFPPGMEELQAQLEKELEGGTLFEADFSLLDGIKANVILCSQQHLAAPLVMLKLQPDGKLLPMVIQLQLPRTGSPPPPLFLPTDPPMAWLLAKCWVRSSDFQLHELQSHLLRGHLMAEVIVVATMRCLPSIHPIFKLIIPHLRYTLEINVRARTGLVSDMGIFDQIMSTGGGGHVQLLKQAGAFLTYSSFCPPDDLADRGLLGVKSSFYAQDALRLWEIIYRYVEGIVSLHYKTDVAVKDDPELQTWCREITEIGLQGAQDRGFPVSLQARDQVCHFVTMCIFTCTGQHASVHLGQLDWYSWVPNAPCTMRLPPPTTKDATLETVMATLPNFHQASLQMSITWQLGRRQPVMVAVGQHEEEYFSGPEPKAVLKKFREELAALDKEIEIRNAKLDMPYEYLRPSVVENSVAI
EXPERIMENTAL READOUT: IC50 (µM)
Give the number; µM is assumed, so skip it.

Exercise: Sample COc1ccc(-c2nc3cccnc3[nH]2)cc1NS(=O)(=O)c1cccs1 [Chemical Example 2] — what was its IC50?
Key: 10
